system: BT-549; assay: NCI tumour cell line growth inhibition, 48 h
Activity calls are given as the source filed them. Rule as the data show it: active = GI50 up to about 1.1 µM and inactive = higher.
Assign a class; possible classes are class 1 = active, class 0 = inactive

Which outcome did this test record for the molecule COC(=O)C1(Cc2ccc3c(c2)CCC3)Cc2ccc3c(c2C1)CCC3 (stereo not given) ?
class 0

Now the molecule CC1(C)CNC(=O)C2(CCCO2)CNC(C)(C)CNC(=O)C2(CCCO2)CN1 (stereo not given)
class 0

Now the molecule C[C@@H]1C(=O)O[C@H]1[C@H](O)CO
class 0

Now the molecule CSc1nc2c(c(=O)[nH]1)N=C(c1ccc(Cl)cc1)CC(c1ccccc1)N2 (stereo not given)
class 0

Now the molecule Cc1ccc(S(=O)(=O)N/N=C2\C3CC4CC(C3)C2C4)cc1 (stereo not given)
class 0

Now the molecule Cc1ccccc1C(O)(c1nccn1C)c1nccn1C
class 0

Now the molecule CC(C)(C)OC(=O)NCCNCCNc1ccccc1
class 0

Now the molecule COC(=O)c1ccc(/C=C2\Oc3cc(O)ccc3C2=O)cc1
class 0

Now the molecule CC1=CC(O)CC(C)(C)C1/C=C/C(C)=C/C=C/C(C)=C/C=C/C=C(C)/C=C/C=C(C)/C=C/C1=C(C)CC(O)CC1(C)C (stereo not given)
class 0

Now the molecule COc1ccc2nc3ccccc3c(NCCCCN(C)CCCl)c2c1
class 1

Now the molecule Clc1ccc(-c2cn3c(nc4ccccc43)c(-c3ccccc3)n2)cc1
class 0

Now the molecule Cn1c(=O)n2n(c1=O)C(C)(C13CC4CC(CC(C4)C1)C3)C13CC4CC(CC1C4)CC23 (stereo not given)
class 0

Now the molecule c1ccc2c(c1)c1c(n2CCOCCCN2CCCCC2)CCCC1
class 0

Now the molecule O=C(OCCN=c1c2ccccc2ccc2ccccc12)c1ccc([N+](=O)[O-])cc1
class 0

Now the molecule CC(C)CC1c2[nH]c3ccccc3c2C[C@H]2C(=O)NC(CCC(=O)OC(C)(C)C)C(=O)N12 (stereo not given in full)
class 0

Now the molecule CCOC(=O)C1(C(=O)OCC)CC(=O)[C@@]2(C1)OCC[C@H]1OC(=O)C[C@H]12
class 0

Now the molecule C[C@H]1/C(=C/C(=O)OCCN(C)C)CC[C@H]2[C@H]1C(=O)C[C@H]1C(C)(C)[C@@H](O)CC[C@]21C
class 0

Now the molecule COc1ccc2oc(=O)cc(C)c2c1
class 0

Now the molecule O=C(CNc1c(Cl)cccc1Cl)NC1C=Cc2ccc(S(=O)(=O)Nc3c(Cl)cccc3Cl)cc2C1=O (stereo not given)
class 0

Now the molecule O=c1[nH]nc(Nc2ccc(Cl)cc2)c2nnn(-c3ccc([N+](=O)[O-])cc3)c12
class 0

* * *

system: NCI-H23; assay: NCI tumour cell line growth inhibition, 48 h
Active and inactive are the calls of the source. No stated cut-off is given here; in the data, active = GI50 up to about 1.1 µM and inactive = higher.
Assign a class; possible classes are active, inactive

Which outcome did this test record for the molecule O=C(O)CCC1C(=O)C2CCN1CC2 (configuration not stated) ?
inactive

Now the molecule COC(=O)/C=C(C)/C=C/c1cc(C(C)=O)c(C)o1
inactive

Now the molecule Cc1cc(NS(=O)(=O)c2ccc(NC(=O)c3ccc(Cl)c4c(Nc5ccc(S(=O)(=O)N=C(N)N)cc5)c5ccccc5nc34)cc2)no1
inactive

Now the molecule COC(=O)CC(C)(N[S+]([O-])c1ccc(C)cc1)c1ccccc1 (configuration not stated)
inactive

Now the molecule CCOC(=O)C1(c2ccccc2)CCCNCC1 (configuration not stated)
inactive

Now the molecule Clc1cc(Cl)cc(/C=N/C23CC4CC(CC(C4)C2)C3)c1
inactive

Now the molecule Clc1sc(Cl)c2c1[C@H](Br)C[C@@H]2Cl
inactive

Now the molecule COc1cc([C@@H]2OCC3C(c4ccc5c(c4)OCO5)OCC32)cc(OC)c1OC (some centres not stated)
inactive

Now the molecule COc1ccc(C(=O)C(C(=O)C(=O)Nc2ccc(Cl)c(Cl)c2)c2ccc(OC)cc2)cc1 (configuration not stated)
inactive

Now the molecule O=C(O)/C(=C/C=C/c1ccccc1)c1csc(-c2nc(/C(=C\C=C\c3ccccc3)C(=O)O)cs2)n1
inactive

Now the molecule COc1ccccc1OC(=O)/C=C/c1ccccc1
inactive

Now the molecule O=C(O)c1c[nH]c2c(ccc3ncccc32)c1=O
inactive

Now the molecule C[N+]1(C)CN(c2ccccc2)C2(CCN(CCCC(=O)c3cccs3)CC2)C1=O
inactive

Now the molecule CC12CCC3[C@@H](CC3(C)C)C(O)(CCC1=O)C2 (some centres not stated)
inactive

Now the molecule O=C1C(NCCc2cc(Br)c(O)c(Br)c2)=CC(=O)c2ncccc21
active

Now the molecule CCOC(=O)CC(NCc1ccc(/N=C/c2nc3ccc(C(F)(F)F)cc3nc2-c2ccccc2)cc1)C(=O)OCC (configuration not stated)
inactive

Now the molecule CC(C)=CCC/C(C)=C/CC/C(C)=C/CSc1ccc(Cl)cc1C(=O)O
inactive

Now the molecule CC(C)(C)N/C(N)=N/C#N
inactive

Now the molecule CCCCCCCCCCCCCCCCCCNc1ccn(C2OC(CO)C(OP(=O)(O)OCC(O)COP(=O)(O)OCC3OC(n4cc(F)c(NCCCCCCCCCCCCCCCCCC)nc4=O)CC3O)C2O)c(=O)n1 (configuration not stated)
inactive

Now the molecule CC(=O)O[C@H]1CC[C@@]2(C)C(=CC[C@@H]3C2CC[C@]2(C)Nc4oncc4CC32)C1 (some centres not stated)
inactive

Now the molecule CC(=O)OC1CC2C(C)(C)C(=O)C=C[C@]2(C)C2CCC3(C)C(c4ccoc4)C(=O)C4OC43[C@]12C (some centres not stated)
inactive

Now the molecule CC(C)N(C(=O)C12C3(C(=O)C(C)(C)C)C4C5(C#N)C3C1(C(=O)C(C)(C)C)C5C42C(=O)C(C)(C)C)C(C)C (configuration not stated)
inactive

Now the molecule Cc1ccc(C2=Nc3ccccc3SC(c3cccc4c3OCO4)C2)cc1 (configuration not stated)
inactive

Now the molecule c1coc(-c2nccc3c2[nH]c2ccccc23)c1
inactive

Now the molecule CC(=O)CCn1ncc(Cl)c(Cl)c1=O
inactive

Now the molecule O=c1c(C(c2ccc(/C=C/c3ccccc3)cc2)c2c(O)oc3ccccc3c2=O)c(O)oc2ccccc12
inactive

Now the molecule COc1c(-c2ccc(F)cc2)oc2cc(O)cc(O)c2c1=O
inactive

Now the molecule c1ccc(-c2cc(-c3cccs3)c(-c3cccs3)s2)cc1
inactive

Now the molecule CCCCOC(=O)Nc1ccc(S(=O)(=O)Nc2c(Cl)cccc2Cl)cc1
inactive

Now the molecule CCCCNC1=C(C(=O)OCC)C(=O)CO1
inactive

Now the molecule CN(C)c1cccc2c1C(=O)C=CC21CCc2ccc(N(C)C)c3c(N(C)C)ccc1c23 (configuration not stated)
inactive

Now the molecule CCOC(=O)C1C(c2ccco2)C2(C#N)C(=N)OC1(C)C2(C#N)C#N (configuration not stated)
inactive

Now the molecule O=c1ccc(=O)c2c1c1[nH]c3ccccc3c1c1c(=O)c3ccccc3c(=O)c21
inactive

Now the molecule CC(=O)NC1=C(C)C(=O)c2c(nc3n2CCC3OC(=O)c2ccccc2)C1=O (configuration not stated)
inactive

Now the molecule CC(C)(C)OC(=O)n1c2ccccc2c2c(=O)nc(N3CCCCC3)sc21
inactive

Now the molecule O=C(O)C1(c2ccccc2)CCCNCC1 (configuration not stated)
inactive

Now the molecule NNC(=O)CCC(NS(=O)(=O)c1ccc(Cl)cc1)C(=O)NN (configuration not stated)
inactive

Now the molecule COc1cccc(C2=NC(C(C)C)CO2)c1OC (configuration not stated)
inactive

Now the molecule O=C(O)CC(Sc1ccccc1)c1ccccc1 (configuration not stated)
inactive

Now the molecule COc1cc(/C=C/c2cc(/C=C/c3ccc(O)c(OC)c3)oc(=O)c2)ccc1O
inactive

Now the molecule COC(=O)N/N=C(\C)CC(=O)Nc1cccc([N+](=O)[O-])c1
inactive

Now the molecule CC(C)CC1c2[nH]c3ccccc3c2C[C@H]2C(=O)NC(COC(C)(C)C)C(=O)N12 (some centres not stated)
inactive
